Origin of values: patent US20030162783A1

# Assayed system: NMDA receptor glycine site (Rattus norvegicus, UniProt P35439)
# Construct: brain membranes bearing the receptor; tissue Analytical Biological Services Inc
# Experiment notes: Test A: Inhibition of binding of [3H]-MDL105,519 to brain membranes
# Stated conditions: [3H]MDL105,519 1.2 nM, brain membranes (rat and human membranes described; table does not say which)
Property name: pKi
As a rule, pKi stands for the negative log10 of the concentration, concentration in M.

{"columns": ["Compound", "pKi"],
 "data": [
  ["O=c1c2ccc(Cl)cc2[nH]c2c(O)nn(Cc3ccco3)c(=O)c12 [Ex. 9]", 7.21],
  ["O=c1c2ccc(Cl)cc2[nH]c2c(O)nn(Cc3ncc[nH]3)c(=O)c12 [Ex. 15]", 6.99],
  ["O=c1c2ccc(Cl)cc2[nH]c2c(O)nn(Cc3ccncn3)c(=O)c12", 6.29]
]}

// next item, pKi requested
# input Provide one value: measured pKi of O=c1c2ccc(Cl)cc2[nH]c2c(O)nn(Cc3ccnc4ccccc34)c(=O)c12 [Ex. 5]
# output 6.43
